biological target: Human immunodeficiency virus type 1 protease (Human immunodeficiency virus 1); test: Inhibitory activity was evaluated against human immunodeficiency virus type 1(HIV-1) protease at pH 6.2
pIC50: −log10 of the molar value.
measurementName: pIC50

1 = CC(C)(C)c1c(SC2=C(O)OC(CCc3ccccc3)(c3ccccc3)CC2=O)sc2ccccc12 (stereo unspecified)
2 = CC(C)(C)c1oc2ccccc2c1SC1=C(O)OC(CCc2ccccc2)(c2ccccc2)CC1=O (stereo unspecified)
3 = CC(C)(C)c1cc2c(cc1SC1=C(O)OC(CCc3ccccc3)(c3ccccc3)CC1=O)CCC2 (stereo unspecified)
4 = Cc1cc(SC2=C(O)O[C@](CCc3ccc(O)cc3)(C(C)C)CC2=O)c(C(C)(C)C)cc1CO
Q: Form: Sort by [pIC50] Order [ ascending ] Dear reader, please state the labels in the requested order.
A: 2, 3, 1, 4
(2: 6.68, 3: 6.89, 1: 7.77, 4: 9.00)
